experiment: Toxicokinetics of the 7-day tox study; type: in vivo, rats; details: male, rat, whole blood, iv, 5 mg/kg, Day 1, 5 mg/kg I.V., Male; read-out: T½ (converted)
metricName: half-life (min)
Use min as the unit, but write only the number.

Bench note: what half-life did CN1CCN(c2nc(NCCN3CCOCC3)c3nc(Cl)c(NCCN4CCOCC4)nc3n2)CC1 show?
612

----------
experiment: Pharmacokinetic study in rats, IV and PO, whole blood (Charles River); assay type: in vivo, Sprague-Dawley rats; conditions: male, Sprague-Dawley, whole blood; Rat, PO 10.0 mg/kg
metricName: Cmax (ng/mL)
Response body: numeric value in ng/mL, unit text excluded.

What does the data say about its Cmax? Entry: CN1CCN(c2nc(NCCN3CCOCC3)c3nc(Cl)c(NCCN4CCOCC4)nc3n2)CC1
149

----------
test: PK/PD study: whole blood JB6121 after 7 days oral dosing; type: in vivo, Sprague-Dawley rats; details: Sprague-Dawley, rat, whole blood; 0.39 mg/kg PO daily x7 days, Day 7, 2 h
metricName: concentration at 2 h (ng/mL)
# unit: ng/mL | format: bare number

Which measured concentration at 2 h value corresponds to CN1CCN(c2nc(NCCN3CCOCC3)c3nc(Cl)c(NCCN4CCOCC4)nc3n2)CC1 ?
2.5

----------
experiment: PK/PD study: whole blood JB6121 after 7 days oral dosing; assay type: in vivo, Sprague-Dawley rats; conditions: Sprague-Dawley, rat, whole blood; 0.39 mg/kg PO daily x7 days, Day 7
metricName: AUC(0-t) (ng·h/mL)
Give a bare numeral; the unit ng·h/mL is implied.

Value lookup for AUC(0-t); key = CN1CCN(c2nc(NCCN3CCOCC3)c3nc(Cl)c(NCCN4CCOCC4)nc3n2)CC1 [JB6121]
9.68

----------
Assay: PK/PD study: whole blood JB6121 after 7 days oral dosing
Format: in vivo, Sprague-Dawley rats
Conditions: Sprague-Dawley, rat, whole blood; 6.25 mg/kg PO daily x7 days, Day 7, 4 h
Protocol: The objective of this study was to collect serum following ODN CpG 1668 administration and to determine the pharmacokinetics of JB6121 following oral administration to Sprague-Dawley rats for 7 days. There was a pre-test to establish the appropriate agonist dose for a TLR9 ligand, CpG DNA ODN 1668, in rats using serum IL-12 as the monitored cytokine, groups 1-3, see table 6. […] Serum IL-12 was determined by ELISA, data not shown. […]
metricName: concentration at 4 h (ng/mL)
Give just the numeric value; ng/mL need not be written.

Return reported concentration at 4 h; argument: CN1CCN(c2nc(NCCN3CCOCC3)c3nc(Cl)c(NCCN4CCOCC4)nc3n2)CC1
77.8

----------
experiment: PK/PD study: whole blood JB6121 after 7 days oral dosing; format: in vivo, Sprague-Dawley rats; conditions: Sprague-Dawley, rat, whole blood; 25 mg/kg PO daily x7 days, Day 7, 3 h
metricName: concentration at 3 h (ng/mL)
Enter your answer as a number in ng/mL; do not include the unit.

Please report the recorded concentration at 3 h for CN1CCN(c2nc(NCCN3CCOCC3)c3nc(Cl)c(NCCN4CCOCC4)nc3n2)CC1 .
711

----------
assay: PK/PD study: whole blood JB6121 after 7 days oral dosing; format: in vivo, Sprague-Dawley rats; settings: Sprague-Dawley, rat, whole blood; 25 mg/kg PO daily x7 days, Day 7, 4 h
metricName: concentration at 4 h (ng/mL)
Give the value, in units of ng/mL, as a plain number.

Reported concentration at 4 h, molecule CN1CCN(c2nc(NCCN3CCOCC3)c3nc(Cl)c(NCCN4CCOCC4)nc3n2)CC1 [JB6121] : ____
487
